Numbers sourced from ChEMBL document CHEMBL4138241.

experiment: Cytotoxicity against African green monkey Vero cells assessed as reduction in cell viability after 72 hrs by MTT assay; format: cell-based; conditions: chlorocebus sabaeus
Response field label takes Satisfied when CC50 at 72 h is strictly below 20 µg/mL and Not satisfied in all other cases.

molecule	class_assignment
CO/N=C1/C(=O)N(CCCn2cc(CN3CCC[C@@H]4CN(c5c(F)cc6c(=O)c(C(=O)O)cn(C7CC7)c6c5OC)C[C@@H]43)nn2)c2ccc(C)cc21	Satisfied
COc1c(N2C[C@H]3CCCN(Cc4cn(CCCN5C(=O)C(=O)c6cc(C)ccc65)nn4)[C@H]3C2)c(F)cc2c(=O)c(C(=O)O)cn(C3CC3)c12	Not satisfied
CO/N=C1/C(=O)N(CCCn2cc(CN3CCC[C@@H]4CN(c5c(F)cc6c(=O)c(C(=O)O)cn(C7CC7)c6c5OC)C[C@@H]43)nn2)c2ccc(F)cc21	Satisfied
CCO/N=C1/C(=O)N(CCCn2cc(CN3CCC[C@@H]4CN(c5c(F)cc6c(=O)c(C(=O)O)cn(C7CC7)c6c5OC)C[C@@H]43)nn2)c2ccccc21	Satisfied
CO/N=C1/C(=O)N(CCCn2cc(CN3CCC[C@@H]4CN(c5c(F)cc6c(=O)c(C(=O)O)cn(C7CC7)c6c5OC)C[C@@H]43)nn2)c2ccccc21	Satisfied
COc1c(N2C[C@H]3CCCN(Cc4cn(CCCN5C(=O)/C(=N/O)c6cc(C)ccc65)nn4)[C@H]3C2)c(F)cc2c(=O)c(C(=O)O)cn(C3CC3)c12	Satisfied

Consider the additional molecule presented here.
Take the molecule NNC(=O)c1ccncc1 [ISONIAZID] and say whether its CC50 at 72 h is less than 20 µg/mL.
Not satisfied
